Recorded MIC, one value per entry.
# System: Staphylococcus aureus
# Protocol summary: Antibacterial activity against methicillin-resistant Staphylococcus aureus NCTC 10442 assessed as inhibition of bacterial growth incubated for 24 hrs by broth dilution method
# Assay type: functional
Assay readout: MIC (mg/L)

Sample smiles	Sign qualifier	Readout value
C=C(C)[C@@H]1CCC(C)=C[C@H]1c1c(OCCCCN(C)CCCNC)cc(CCCCC)cc1OCCCCN(C)CCCNC	=	1.56
C=C(C)[C@@H]1CCC(C)=C[C@H]1c1c(OCCCCN(CC)CC)cc(CCCCC)cc1OCCCCN(CC)CC	=	12.5
C=C(C)[C@@H]1CCC(C)=C[C@H]1c1c(OCCCCN2CCCC2)cc(CCCCC)cc1OCCCCN1CCCC1	=	3.12
C=C(C)[C@@H]1CCC(C)=C[C@H]1c1c(OCCCBr)cc(CCCCC)cc1OCCCBr	>	50
C=C(C)[C@@H]1CCC(C)=C[C@H]1c1c(OCCCNC(=N)N)cc(CCCCC)cc1OCCCNC(=N)N	=	0.78
CN[C@H](CC(C)C)C(=O)N[C@H]1C(=O)N[C@@H](CC(N)=O)C(=O)N[C@H]2C(=O)N[C@H]3C(=O)N[C@H](C(=O)N[C@H](C(=O)O)c4cc(O)cc(O)c4-c4cc3ccc4O)[C@H](O)c3ccc(c(Cl)c3)Oc3cc2cc(c3O[C@@H]2O[C@H](CO)[C@@H](O)[C@H](O)[C@H]2O[C@H]2C[C@](C)(N)[C@H](O)[C@H](C)O2)Oc2ccc(cc2Cl)[C@H]1O	=	1.56
C=C(C)[C@@H]1CCC(C)=C[C@H]1c1c(O)cc(CCCCC)cc1O	=	3.12
C=C(C)[C@@H]1CCC(C)=C[C@H]1c1c(OCC(=O)N[C@@H](CCCNC(=N)N)C(N)=O)cc(CCCCC)cc1OCC(=O)N[C@@H](CCCNC(=N)N)C(N)=O	=	12.5
C=C(C)[C@@H]1CCC(C)=C[C@H]1c1c(OCCCCN(CCCC)CCCC)cc(CCCCC)cc1OCCCCN(CCCC)CCCC	>	50
C=C(C)[C@@H]1CCC(C)=C[C@H]1c1c(OCC(=O)N[C@@H](CCCCN)C(=O)OC)cc(CCCCC)cc1OCC(=O)N[C@@H](CCCCN)C(=O)OC	=	25
C=C(C)[C@@H]1CCC(C)=C[C@H]1c1c(OCCCCCCNC(=N)N)cc(CCCCC)cc1OCCCCCCNC(=N)N	=	1.56
C=C(C)[C@@H]1CCC(C)=C[C@H]1c1c(OCCCN)cc(CCCCC)cc1OCCCN	=	6.25
C=C(C)[C@@H]1CCC(C)=C[C@H]1c1c(OCCCCCCCCCCBr)cc(CCCCC)cc1OCCCCCCCCCCBr	>	50
C=C(C)[C@@H]1CCC(C)=C[C@H]1c1c(OCCCCCCCCCCN)cc(CCCCC)cc1OCCCCCCCCCCN	>	50
C=C(C)[C@@H]1CCC(C)=C[C@H]1c1c(OCCCCCN)cc(CCCCC)cc1OCCCCCN	=	1.56
C=C(C)[C@@H]1CCC(C)=C[C@H]1c1c(OCC(=O)O)cc(CCCCC)cc1OCC(=O)O	>	50
C=C(C)[C@@H]1CCC(C)=C[C@H]1c1c(OCCCCCCN)cc(CCCCC)cc1OCCCCCCN	=	0.78
C=C(C)[C@@H]1CCC(C)=C[C@H]1c1c(OCCCCCCCCCCNC(=N)N)cc(CCCCC)cc1OCCCCCCCCCCNC(=N)N	=	50
